tested on: OVCAR-5; assay: NCI tumour cell line growth inhibition, 48 h
Activity calls are given as the source filed them. Rule as the data show it: active = GI50 up to about 1.1 µM and inactive = higher.
Outcomes you can answer with include only these: yes (active), no (inactive)

[[record]]
compound = "COCO[C@@H]1C[C@H]2C(O)Nc3ccccc3C(=O)N2C1 (stereo not given in full)"
category = "no"

[[record]]
compound = "COc1ccc(C(c2ccccc2)N2C(=O)CCC2C(=O)O)cc1OC (stereo not given)"
category = "no"

[[record]]
compound = "CC1(C)CCC[C@]2(C)[C@@H](C=O)C(C=O)=CC[C@@H]12 [POLYGODIAL]"
category = "no"


query: Please indicate how the test categorized Cc1cn(CCCCCOC(=O)NC(CCCNC(N)=O)C(=O)O)c(=O)[nH]c1=O (stereo not given) .
result: no

query: Please indicate how the test categorized CS(=O)(=O)N(CCC#N)c1ccc(C=O)cc1 .
result: no

query: Please indicate how the test categorized CC/C(CC(=O)CCC(=O)Nc1ccc(C)c(C)c1)=N\NC(=O)C(N)=O .
result: no

query: Please indicate how the test categorized N#CC1=C(N2CCOCC2)CCC1 .
result: no

query: Please indicate how the test categorized CC1CC(C)C2OC2(C)C[C@H](C)C(=O)NC(C)C(=O)N(C)[C@H](Cc2c(Br)[nH]c3ccccc23)C(=O)N[C@@H](c2ccc(O)cc2)CC(=O)O1 (stereo not given in full) .
result: yes

query: Please indicate how the test categorized Nc1c(C(=O)NC23CC4CC(CC(C4)C2)C3)[n+]([O-])c2ccccc2[n+]1[O-] .
result: no

query: Please indicate how the test categorized CS(=O)(=O)c1ccc(COP(N)(=O)N(CCCl)CCCl)cc1 (stereo not given) .
result: no
